System: MALME-3M melanoma
ASSAY NAME: NCI-60 one-dose screen, 48 h (100 = growth as untreated, 0 = no growth, -100 = all killed)
RUN PARAMETERS: 10 µM unless noted
This is part of a sample that, as a whole, favours compounds with a hit. Of some 83,000 tested, about 20% had one in any assay.
Each record gets a class by growth: range 1 = under 20%, range 2 = from 20% up to 70%, range 3 = 70% and over

| MOLECULE | LABEL |
| --- | --- |
| COC(=O)[C@]12CC[C@@H](C)[C@H](C)[C@@H]1C1=CC[C@@H]3[C@@]4(C)C(C=O)=C[C@@](C)(COC(C)=O)[C@@H]4[C@H](O)C[C@@]3(C)[C@]1(C)CC2 | range 1 |
| COc1cc(N=Nc2ccc(N)cc2)c(OC)cc1N=Nc1ccccc1.[Cl][Zn][Cl] | range 3 |
| CC1(c2ccccc2)NC(=O)N(NC(=O)CSc2nc(-c3cccs3)nc3ccccc23)C1=O (stereo not given) | range 3 |
| COc1ccc(-c2nc3c(c(=O)n2C(C)=O)C(c2ccc(Cl)cc2)c2sc4c(Cl)cccc4c2O3)cc1 (stereo not given) | range 2 |
| N#C/C(=C/C=C/c1cccc(Cl)c1)S(=O)c1ccccc1 (stereo not given) | range 1 |
| O=C1/C(=C\c2cccnc2)SC(=S)N1CCc1ccc(O)cc1 | range 3 |
| COC(=O)c1c2c(c[n+]([O-])c1C)C(=O)C=CC2=O | range 1 |
| COC(=O)c1ccc(C2Nc3ccc(S(=O)(=O)Nc4ccc(C)c(C)c4)cc3C3OCCC23)cc1 (stereo not given) | range 3 |
| O=C(COc1ccc(/C=C2\Oc3ccccc3C2=O)cc1)Nc1nc2c(s1)CCCC2 | range 2 |
| COc1cccc(-c2nc3sccn3c2-c2ccnc(NCCNS(=O)(=O)c3cccc(F)c3)c2)c1 | range 2 |
